Tested on: SF-295
Method Summary: NCI tumour cell line growth inhibition, 48 h
Calls of active or inactive are those of the source. Rule as the data show it: active = GI50 up to about 1.1 µM and inactive = higher.
Please respond with reported GI50 for every item in the list.

According to the records, this molecule CC(C)Oc1c(O)c2c3c(oc(=O)n3C=CC2c2ccccc2F)c1OC(C)C (centres undefined) displays GI50 of 25.6 µM (inactive)

According to the records, this molecule CCOC(=O)C(Cc1ccc([N+](=O)[O-])cc1)NC(=O)CC1c2ccccc2-c2ccccc21 (centres undefined) displays GI50 of 51.5 µM (inactive)

According to the records, this molecule O=C(O)CCSC(=O)Nc1cccc(F)c1 displays GI50 of > 100 µM (inactive)

According to the records, this molecule C=CCN1C(=O)/C(=C/c2ccco2)N=C1SC1OC(COC(C)=O)C(OC(C)=O)C(OC(C)=O)C1OC(C)=O (centres undefined) displays GI50 of > 100 µM (inactive)

According to the records, this molecule O=C(Nc1cccc(O)c1)C(=O)C1C(=O)NC(=S)NC1=O displays GI50 of > 100 µM (inactive)

According to the records, this molecule CC(=O)c1ccc(NC(=O)/C(=N\NC(N)=O)C(C#N)CC(C)(C)C=O)cc1 (centres undefined) displays GI50 of > 100 µM (inactive)

According to the records, this molecule O=C(CCCCCCCCCCc1ccccc1)c1c(O)cccc1O displays GI50 of 21.3 µM (inactive)

According to the records, this molecule O=C(O)CNCCc1ccccc1 displays GI50 of > 100 µM (inactive)

According to the records, this molecule O=C1O[C@H](c2ccc3c(c2)OCO3)[C@H]2CO[C@@H](c3ccc4c(c3)OCO4)[C@@H]12 displays GI50 of 60.1 µM (inactive)

According to the records, this molecule CC(=O)c1ccc(OCC(O)CO)cc1 (centres undefined) displays GI50 of > 100 µM (inactive)

According to the records, this molecule Cc1cccc(NC(=O)Cc2nc3ccccc3s2)c1C displays GI50 of > 100 µM (inactive)

According to the records, this molecule COc1cc2c(c(OC)c1)/C(=C/Sc1ccccc1)C(=O)N(C(C)(C)C)C2 displays GI50 of 27.2 µM (inactive)

According to the records, this molecule CCOP(=O)(C/C=C/Cn1nc(Br)c(=O)[nH]c1=O)OCC displays GI50 of > 100 µM (inactive)

According to the records, this molecule N=c1nc2n(cc1F)[C@@H]1O[C@H](CO)[C@@H](O)[C@@H]1O2 displays GI50 of 49.9 µM (inactive)

According to the records, this molecule O=C(CC1(O)C(=O)Nc2ccccc21)c1ccc2ccccc2c1 (centres undefined) displays GI50 of > 100 µM (inactive)

According to the records, this molecule CCOC(=O)/C(C(N)=O)=C(O)/C(O)=C(\Br)C(=O)c1ccccc1 displays GI50 of 56.8 µM (inactive)

According to the records, this molecule Cc1c(CNc2ccc(C(=O)NC(CC(=O)O)C(=O)O)cc2)ccc2nc(N)nc(N)c12 (centres undefined) displays GI50 of < 0.0106 µM (active)

According to the records, this molecule CCCC(C(=O)Nc1cccc2nc[nH]c12)C(=O)OCC (centres undefined) displays GI50 of > 100 µM (inactive)

According to the records, this molecule COc1ccc(C23OCC(Cc4cc(OC)c(OC)cc42)C3CO)cc1OC (centres undefined) displays GI50 of > 100 µM (inactive)

According to the records, this molecule CC(N)(Cc1c[nH]c2ccccc12)C(=O)O (centres undefined) displays GI50 of > 100 µM (inactive)

According to the records, this molecule COC(=O)C(C/C=C(\C)c1ccccc1)C(C)=O (centres undefined) displays GI50 of 18.4 µM (inactive)

According to the records, this molecule O=c1c2cc([N+](=O)[O-])ccc2sc2ccsc12 displays GI50 of > 100 µM (inactive)

According to the records, this molecule COc1ccc(-c2c3c(n(C4OC(COC(C)=O)C(OC(C)=O)C(OC(C)=O)C4OC(C)=O)c(=S)c2C#N)CC(C)(C)CC3=O)cc1 (centres undefined) displays GI50 of 78 µM (inactive)

According to the records, this molecule COc1cccc(-c2nc3c(C(=O)NCCN(C)C)cccc3[nH]2)c1 displays GI50 of 16.2 µM (inactive)

According to the records, this molecule Cc1cc(S(=O)(=O)Nc2nc(N)n[nH]2)c(S)cc1Cl displays GI50 of > 10 µM (inactive)

According to the records, this molecule Cc1cc(C)nc(NS(=O)(=O)c2ccc(Nc3c4ccc(Cl)cc4nc4c(C(=O)Nc5ccc(S(=O)(=O)N=C(N)N)cc5)cccc34)cc2)n1 displays GI50 of > 100 µM (inactive)

According to the records, this molecule CC1=NN2C(=N)/C(=C/c3ccco3)C(=O)N=C2S1 displays GI50 of > 100 µM (inactive)

According to the records, this molecule COC(=O)C1CC2CC1C1C2SC(F)(F)C1(F)F (centres undefined) displays GI50 of > 100 µM (inactive)

According to the records, this molecule COC(=O)[C@]1(c2ccc(N(C)C)cc2OC)C[C@@H]2CCCN(CCc3c1[nH]c1ccccc31)C2 displays GI50 of > 43.7 µM (inactive)

According to the records, this molecule O=C1OC(c2ccco2)=N/C1=C\c1ccc(Cl)c(Cl)c1 displays GI50 of > 100 µM (inactive)

According to the records, this molecule CCc1nc(N)c2nc(-c3ccc(C#N)cc3)oc2n1 displays GI50 of > 100 µM (inactive)

According to the records, this molecule Cc1cn(Cc2ccccc2CCO)c(=S)[nH]c1=O displays GI50 of > 100 µM (inactive)

According to the records, this molecule Cc1cc(C)c2c(=O)n(CN3CC4Nc5ccccc5C4C3)sc2n1 (centres undefined) displays GI50 of > 100 µM (inactive)

According to the records, this molecule CS/C1=C(\c2ccc(C)cc2)N(c2ccccc2)C(=O)C(=O)N(c2ccccc2)/C(c2ccc(C)cc2)=C(/SC)SS1 displays GI50 of > 100 µM (inactive)

According to the records, this molecule CC1(C)OC2C(O)CN3CCS[C@H]3C2O1 (some centres undefined) displays GI50 of > 100 µM (inactive)

According to the records, this molecule C[C@@H](C(=O)O)c1ccc(-c2ccccc2)c(F)c1 displays GI50 of > 100 µM (inactive)

According to the records, this molecule NC(CCC(=O)O)C(=O)NC(Cc1ccc(N(CCCl)CCCl)cc1)C(=O)O (centres undefined) displays GI50 of > 100 µM (inactive)

According to the records, this molecule CCOc1ccccc1NC(=O)CCc1nnc(S)[nH]1 displays GI50 of > 100 µM (inactive)

According to the records, this molecule COc1ccc(C2[C@H]3C(=O)N(c4ccc(Cc5ccc(N6C(=O)[C@@H]7ON(c8ccccc8)C(c8ccc(OC)cc8)[C@@H]7C6=O)cc5)cc4)C(=O)[C@H]3ON2c2ccccc2)cc1 (some centres undefined) displays GI50 of > 100 µM (inactive)

----------
Test system: RXF 393
Method Summary: NCI tumour cell line growth inhibition, 48 h
The source made the active and inactive calls. Rule as the data show it: active = GI50 up to about 1.1 µM and inactive = higher.
Please respond with reported GI50 for every item in the list.

Reading of GI50 for CC(=O)/C(=C\NC(=S)Nc1ccc(S(N)(=O)=O)cc1)C(=O)Nc1ccccc1C with RXF 393: 37.1 µM (inactive)

Reading of GI50 for CCOP(=O)(OCC)C(C)(CC)N/C(N)=N/C#N (stereo not drawn) with RXF 393: > 100 µM (inactive)

Reading of GI50 for Cc1nc2c(n1-c1ccccc1)C(=O)c1ccccc1C2=O with RXF 393: 75.2 µM (inactive)

----------
Test system: COLO 205
Method Summary: NCI tumour cell line growth inhibition, 48 h
Calls of active or inactive are those of the source. Rule as the data show it: active = GI50 up to about 1.1 µM and inactive = higher.
Endpoint Name: GI50

According to the records, this compound Cn1c2c(c3c(=O)[nH]ncc31)CCCc1ccccc1-2 displays GI50 of 17.9 µM (inactive)

According to the records, this compound COc1cccc(C=C2N=C(C)N(n3c(-c4ccccc4)nc4ccccc4c3=O)C2=O)c1 displays GI50 of > 100 µM (inactive)

According to the records, this compound COC(=O)[C@@H](OC(C)=O)[C@@H](OC(C)=O)c1nnc2ccc(Cl)nn12 displays GI50 of > 100 µM (inactive)

According to the records, this compound Nc1nc(Cl)c(/C=N\O)c(NCC2(CO)CC(=O)C2)n1 displays GI50 of > 100 µM (inactive)

According to the records, this compound COc1cc2c(c(OC)c1)/C(=C/Sc1ccccc1)C(=O)N(C(C)(C)C)C2 displays GI50 of 26.2 µM (inactive)

According to the records, this compound O=C(NN=C(c1ccccc1)c1ccccc1)/C(O)=C/C(=O)c1ccc(Cl)cc1 displays GI50 of 19.9 µM (inactive)

According to the records, this compound CCOC(=O)C(O)(NC(C)=O)C(F)(F)F (stereo not drawn) displays GI50 of > 100 µM (inactive)

According to the records, this compound CCCCCCCCC/C=C1\CC(CO)(COC(=O)c2ccccc2)OC1=O (stereo not drawn) displays GI50 of 16.6 µM (inactive)
